Assay: compounds altering in vitro BBB leakiness – cell-based, FITC-avidin fluorescence, HTS, primary screen (AID 1963498); further: test concentration not given here
Details: brain endothelial barrier, actives lie on both sides
Label criterion met when fold change permeability is at or above 1; anything below gets criterion not met.

Query: Would you say N=C(N)c1ccc(N)cc1 shows fold change permeability at minimum 1?
Reply: criterion met

Query: Would you say C[C@H](NC(=O)CNC(=O)c1cccc(Cl)c1)c1ccccc1 shows fold change permeability at minimum 1?
Reply: criterion met

Query: Would you say N#CSCC(=O)c1ccc(O)c(O)c1 shows fold change permeability at minimum 1?
Reply: criterion met

Query: Would you say Cc1cc(CN2CCN(c3c(Br)cnc4nc(-c5ccc(N6CCN(C)CC6)cc5)[nH]c34)CC2)no1 shows fold change permeability at minimum 1?
Reply: criterion met

Query: Would you say Cc1nc2ccc(NC(=O)Nc3ccnc4cccnc34)cc2o1 shows fold change permeability at minimum 1?
Reply: criterion met

Query: Would you say Fc1ccc(-c2ccc(Nc3nc(Cl)nc(Cl)n3)cc2)cc1 shows fold change permeability at minimum 1?
Reply: criterion not met

Query: Would you say CN1C2CCC1CC(OC(=O)C(O)c1ccccc1)C2 (configuration not stated) shows fold change permeability at minimum 1?
Reply: criterion met

Query: Would you say Cc1nc(N=Nc2ccc(C(=O)O)cc2)c(COP(=O)(O)O)c(C=O)c1O shows fold change permeability at minimum 1?
Reply: criterion not met

----------
Assay: compounds altering in vitro BBB leakiness – cell-based, FITC-avidin fluorescence, HTS, primary screen (AID 1963498); further: test concentration not given here
Conditions: brain endothelial barrier, actives lie on both sides
Calls of active or inactive are those of the source. Cut-off read from the data, not from the text of the source: active = fold change permeability below about 0.7 or above about 1.3; inactive = in between.
Respond only with the outcome that fits, drawn from label 1 (active), label 0 (inactive)

Query: What outcome does the record of this test show for CC(C)NNC(=O)c1ccncc1 ?
Reply: label 1

Query: What outcome does the record of this test show for O=c1[nH]cnc2[nH]ncc12 ?
Reply: label 0

Query: What outcome does the record of this test show for CN(C)C(=O)Oc1cccc([N+](C)(C)C)c1 ?
Reply: label 0

Query: What outcome does the record of this test show for CC(=O)[C@H]1CCC2C3CC=C4C[C@@H](OS(=O)(=O)O)CC[C@]4(C)C3CC[C@@]21C (stereo not given in full) ?
Reply: label 0

Query: What outcome does the record of this test show for O=C(O)CCc1ccc(-c2ccc(Br)cc2)n1-c1ccccc1C(F)(F)F ?
Reply: label 0

Query: What outcome does the record of this test show for O=c1c2ccccc2[nH]c(=S)n1CCN1CCC(=C(c2ccc(F)cc2)c2ccc(F)cc2)CC1 ?
Reply: label 1

Query: What outcome does the record of this test show for Cn1c(=O)c2c(nc(/C=C/c3cccc(Cl)c3)n2C)n(C)c1=O ?
Reply: label 1

Query: What outcome does the record of this test show for O=C(O)/C=C1\CCCc2ccccc2C1O (stereo not given) ?
Reply: label 0

Query: What outcome does the record of this test show for CN(C)c1nc(N(C)C)nc(N(C)C)n1 ?
Reply: label 0

Query: What outcome does the record of this test show for N=c1ccn2c(n1)O[C@H]1[C@H](O)[C@@H](CO)O[C@H]12 ?
Reply: label 0

Query: What outcome does the record of this test show for CC1CCc2nc(N)c(C#N)c(-c3cccnc3)c2C1 (stereo not given) ?
Reply: label 0

Query: What outcome does the record of this test show for COC(=O)[C@@H](N)Cc1ccc(O)c(O)c1 ?
Reply: label 0

Query: What outcome does the record of this test show for CCN(CC)CCn1c(=O)c(Cc2ccc(OC)cc2)nc2ccccc21 ?
Reply: label 1

Query: What outcome does the record of this test show for CNC(=O)Oc1ccc2c(c1)[C@]1(C)CCN(C)[C@@H]1N2C ?
Reply: label 0

Query: What outcome does the record of this test show for COc1ccc2[nH]c([S@@](=O)Cc3ncc(C)c(OC)c3C)nc2c1 ?
Reply: label 0

Query: What outcome does the record of this test show for CN(C)CCC(c1ccccc1)c1ccccn1 (stereo not given) ?
Reply: label 0

Query: What outcome does the record of this test show for Cc1ccc(Cl)c(Nc2ccccc2C(=O)O)c1Cl ?
Reply: label 1

Query: What outcome does the record of this test show for CC(C)(N)C(=O)N[C@H](COCc1ccccc1)C(=O)N1CCC2(CC1)CN(S(C)(=O)=O)c1ccccc12 ?
Reply: label 1

Query: What outcome does the record of this test show for O=C(O)C1(C(=O)O)CCC1.[NH2-].[NH2-].[Pt+2] ?
Reply: label 0

Query: What outcome does the record of this test show for NC(N)=NCc1cccc(I)c1 ?
Reply: label 0

Query: What outcome does the record of this test show for Nc1nc2c(c(=O)[nH]1)C[C@@H](CCc1ccc(C(=O)N[C@@H](CCC(=O)O)C(=O)O)cc1)CN2 ?
Reply: label 0

Query: What outcome does the record of this test show for O=C1CCC(c2ccc(-n3ccnc3)cc2)=NN1 ?
Reply: label 0

Query: What outcome does the record of this test show for CC(=O)N=c1sc(S(N)(=O)=O)nn1C ?
Reply: label 1

Query: What outcome does the record of this test show for O=C(O)COc1ccc(C(=O)c2cccs2)c(Cl)c1Cl ?
Reply: label 1

Query: What outcome does the record of this test show for COc1cc2c(cc1OC)C1CC(=O)C(CC(C)C)CN1CC2 (stereo not given) ?
Reply: label 1

Query: What outcome does the record of this test show for O=C(O)CCCCN(CCc1ccccc1OCc1ccc(CCc2ccccc2)cc1)Cc1ccc(C(=O)O)cc1 ?
Reply: label 0

Query: What outcome does the record of this test show for CCCC(=O)NCCc1csc(-c2ccc(Cl)cc2)n1 ?
Reply: label 1

Query: What outcome does the record of this test show for C[N+](C)(C)CCCCCC[N+](C)(C)C ?
Reply: label 0

Query: What outcome does the record of this test show for CO[C@@]1(NC(=O)CSCC#N)C(=O)N2C(C(=O)O)=C(CSc3nnnn3C)CS[C@@H]21 ?
Reply: label 0

Query: What outcome does the record of this test show for NS(=O)(=O)c1cccc2c1c([N+](=O)[O-])cc1nc(O)c(O)nc12 ?
Reply: label 0

Query: What outcome does the record of this test show for CC12CC3CC(C)(C1)CC(N)(C3)C2 ?
Reply: label 0

Query: What outcome does the record of this test show for Cn1ccc2cc3c(cc21)CCN3C(=O)Nc1cccnc1 ?
Reply: label 1

Query: What outcome does the record of this test show for Oc1cc(O)c2c(c1)O[C@H](c1ccc(O)c(O)c1)[C@@H](O)C2 ?
Reply: label 0

Query: What outcome does the record of this test show for N[C@@H](Cc1ccc(O)c(I)c1)C(=O)O ?
Reply: label 1

Query: What outcome does the record of this test show for CN1C[C@H](C(=O)N[C@]2(C)O[C@@]3(O)[C@@H]4CCCN4C(=O)[C@H](Cc4ccccc4)N3C2=O)C[C@@H]2c3cccc4[nH]cc(c34)C[C@H]21 ?
Reply: label 1

Query: What outcome does the record of this test show for C[C@@H](O[C@H]1OCCN(Cc2nn(P(=O)(O)O)c(=O)[nH]2)[C@H]1c1ccc(F)cc1)c1cc(C(F)(F)F)cc(C(F)(F)F)c1 ?
Reply: label 1

Query: What outcome does the record of this test show for c1ccc(CN2CCC3(CCCc4ccccc43)CC2)cc1 ?
Reply: label 1

Query: What outcome does the record of this test show for O=C(CCc1ccc(O)cc1)c1c(O)cc(O)cc1O ?
Reply: label 0

Query: What outcome does the record of this test show for CC(C)(C)C(=O)Oc1ccc(S(=O)(=O)Nc2ccccc2C(=O)NCC(=O)O)cc1 ?
Reply: label 1

Query: What outcome does the record of this test show for CN1CCN(c2nc3cc(C(F)(F)F)ccc3n3cccc23)CC1 ?
Reply: label 1

Query: What outcome does the record of this test show for O=C(c1ccc(Br)cc1)N1CC2C3CCC(O3)C2C1 (stereo not given) ?
Reply: label 0

Query: What outcome does the record of this test show for Cc1ccccc1C(OCCN(C)C)c1ccccc1 (stereo not given) ?
Reply: label 0

Query: What outcome does the record of this test show for CCCCC[C@H](CC(=O)NO)C(=O)N[C@H](C(=O)N1CCC[C@H]1CO)C(C)C ?
Reply: label 0

Query: What outcome does the record of this test show for CSc1ccc2c(c1)C(N1CCN(C)CC1)Cc1ccccc1S2 (stereo not given) ?
Reply: label 0

Query: What outcome does the record of this test show for CN1CCN(CCCN2c3ccccc3Sc3ccc(C(F)(F)F)cc32)CC1 ?
Reply: label 0
